Values were extracted from PubChem BioAssay AID192.

Tested on: BDF1 mice, B16 melanoma ip, median survival T/C
Test: NCI In Vivo Anticancer Drug Screen. Data for tumor model B16 Melanoma (intraperitoneal) in B6D2F1 (BDF1) mice
Conditions: endpoint: median survival time; dose: 0.5 mg/kg/injection; schedule: Q01DX009 (ip); vehicle: water
Toxic doses and inconclusive results are not listed. How the source made its calls: active means survival T/C of 150% or more; inactive means T/C below 125% in these data.
Please answer using one outcome listed in active, inactive

Can you look up the reported call for CO[C@H](C(=O)[C@@H](O)[C@@H](C)O)[C@@H]1Cc2cc3cc(OC4CC(OC5CC(O)C(O)C(C)O5)C(O)C(C)O4)c(C)c(O)c3c(O)c2C(=O)[C@H]1OC1CC(OC2CC(OC3CC(C)(O)C(O)C(C)O3)C(O)C(C)O2)C(O)C(C)O1 (stereo partly specified) for me?
inactive

Also `CC[n+]1ccc(Nc2ccc(NC(=O)c3ccc(Nc4cc[n+](CC)c5ccc(N)cc45)cc3)cc2)cc1` ?
inactive

For CCC12C=CCN3CCC4(c5cc(C(c6cccnc6)c6cc7ccccc7n6C)c(OC)cc5N(C)C4C(O)(C(=O)OC)C1OC(C)=O)C32 (stereo unspecified) then?
inactive

# repeat for CC[C@@]1(O)C[C@H](OC2CC(N(C)C)C(OC3CC(O)C(OC4CCC(=O)C(C)O4)C(C)O3)C(C)O2)c2c(cc3c(c2O)C(=O)c2c(O)ccc(O)c2C3=O)[C@H]1C(=O)OC (stereo partly specified)
inactive

Item: CNC(C)C1(O)Cc2c(O)c3c(c(O)c2C(OC2CC(N)C(O)C(C)O2)C1)C(=O)c1c(OC)cccc1C3=O (stereo unspecified)
inactive

Thanks! And CCC1CC2CN(CCc3c([nH]c4ccccc34)C(C(=O)OC)(c3cc4c(cc3OC)N(C)C3C(O)(C(=O)OC)C(OC(C)=O)C5(CC)C=CCN6CCC43C65)C2)C1 (stereo unspecified) ?
active

* * *

Field: T/C. Provide a value for each of the molecules that follow.
Test system: BDF1 mice, B16 melanoma ip, median survival T/C
Experiment: NCI In Vivo Anticancer Drug Screen. Data for tumor model B16 Melanoma (intraperitoneal) in B6D2F1 (BDF1) mice
Conditions: endpoint: median survival time; dose: 12.5 mg/kg/injection; schedule: Q01DX009 (ip); vehicle: saline; higher = longer survival
Toxic doses and inconclusive results are not listed.

I'd like to know its T/C. The molecule in question is `CN1CCC(OC2c3ccccc3CCc3ccccc32)CC1`
104 % of control

Can you check CC(C)=CCNc1ncnc2c1ncn2C1OC(CO)C(O)C1O (stereo not given) next?
96 % of control

What about this molecule? `C=CCN(CC=C)CCN(CC)CC`
94 % of control

Request: `CNCCCC1c2ccccc2C=Cc2ccccc21`
112 % of control

Can you handle COCC1OC(OC2OCC3OC4(OCC(O)(C(C)OC)C5OCOC54)OC3C2OC)C(OC)C(O)C1OC1OC(C)C(OC)C(OC2OC(C)C3OC4(CC(O)C(OC5CC(OC6CC(C)([N+](=O)[O-])C(OC)C(C)O6)C(OC(=O)c6c(C)c(Cl)c(O)c(Cl)c6OC)C(C)O5)C(C)O4)OC3(C)C2O)C1O (stereo not given) next?
95 % of control

Field entry: CC1C(=O)OCC2=CCN3CCC(OC(=O)C(C)C1(C)O)C23 (stereo not given)
123 % of control

What would you report for CNCC(O)c1cccc(O)c1 (stereo not given) ?
108 % of control

Same again, this time with CCCC1CCC(=C2C(=O)CCC2=O)O1 (stereo not given)
91 % of control

Quick one: `O=P(N1CCOCC1)(N1CC1)N1CC1`
118 % of control

Also CN(C)CCCC1c2ccccc2Oc2ccc(C(F)(F)F)cc21 (stereo not given) , if possible.
100 % of control
